System: PriA–SSB C-terminal tail interaction (Klebsiella pneumoniae)
Experiment: blocks PriA binding to SSB C-terminal tail, primary screen, biochemical, AlphaScreen (AID 1272365);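 further: plate controls were negative control peptide for no effect and reference peptide for full effect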
Details: AlphaScreen SSBct-PriA binding, biotinylated peptide; at 33 µM, active compounds read high
Among all 430,000 compounds or so, about 2,600 (0.6%) were called active. The full list was thinned out, with actives kept by preference.
readout_kind: inhibition (%)
// return numeric value only (unit: %, not printed)

Below, 2 compounds whose answers are already recorded.
In [3]: df
Out[3]:
                                   compound  readout_kind  result_units  value_observed
0  CCOC(=O)CSc1nnc(CNC(=O)Cc2ccccc2)n1-c1ccccc1OC    inhibition             %           -1.32
1  O=C1c2ccccc2NC(c2ccccn2)N1NS(=O)(=O)c1ccccc1 (centres undefined)    inhibition             %           -13.5

Summary for this compound, O=[N+]([O-])c1cc(S(=O)(=O)N2CCCC2)ccc1NN=C1CCCC1 : inhibition is 11.5

Summary for this compound, Cc1oc2cc(OCC(=O)c3ccc(F)cc3)ccc2c(=O)c1-c1ccccc1 : inhibition is 7

Summary for this compound, CCCN1CCCc2cc(CCNS(=O)(=O)Cc3cccc(C)c3)ccc21 : inhibition is 73

Summary for this compound, O=[N+]([O-])c1ccccc1Nc1ccc(O)cc1 : inhibition is 46.7

Summary for this compound, O=C(CSc1ccccc1)Nc1nc(-c2ccccn2)cs1 : inhibition is -20

Summary for this compound, O=C(Nc1ccc(OC(F)(F)F)cc1)C(=O)Nc1ccccc1[N+](=O)[O-] : inhibition is 4

Summary for this compound, O=C(CN1C(=O)C2C3C=CC(C3)C2C1=O)Nc1nc(-c2ccccn2)cs1 (centres undefined) : inhibition is 84.8

---

Parameter inhibition: see the listing below.
System: PriA–SSB C-terminal tail interaction (Klebsiella pneumoniae)
Assay: blocks PriA binding to SSB C-terminal tail, primary screen, biochemical, AlphaScreen (AID 1272365)
Details: AlphaScreen SSBct-PriA binding, biotinylated peptide; at 33 µM, active compounds read high
In all, about 430,000 compounds went through this assay and about 2,600 (0.6%) were called active. The full list was thinned out, with actives kept by preference.
// return numeric value only (unit: %, not printed)

Below, 3 compounds whose answers are already recorded.
>>> print(df.to_string())
                                     smiles  value_observed
0  COc1cc(N2CCN(C(=O)Nc3ccc(F)c(Cl)c3)CC2)nc(C)n1              -8
1  O=C(c1ccc(S(=O)(=O)NCc2cccnc2)o1)N1CCC(Cc2ccccc2)CC1               5
2  Cc1ccccc1OCC(=O)NCCS(=O)(=O)N1CCN(Cc2ccccc2)CC1              -5

Summary for this compound, COc1cccc(Cn2cc(C(=O)c3ccccc3)c(=O)c3cc4c(cc32)OCCO4)c1 : inhibition is -13

Summary for this compound, Cc1ccc(NC(=O)Cc2csc(SCC(=O)c3ccc4c(c3)OCO4)n2)cc1F : inhibition is 0

---

Test system: PriA–SSB C-terminal tail interaction (Klebsiella pneumoniae)
Test: blocks PriA binding to SSB C-terminal tail, primary screen, biochemical, AlphaScreen (AID 1272365)
Conditions: AlphaScreen SSBct-PriA binding, biotinylated peptide; at 33 µM, active compounds read high
About 2,600 (0.6%) of roughly 430,000 compounds were called active. This excerpt belongs to a sample that is enriched for actives.
readout_kind: inhibition (%)
// return numeric value only (unit: %, not printed)

In [3]: df
Out[3]:
                                   compound                              assay_system  result_units  value_observed
0  COc1cc(Nc2ccc(NS(=O)(=O)c3ccccc3Cl)cc2)nc(C)n1  PriA–SSB C-terminal tail interaction (Klebsiella pneumoniae)             %               5
1  COc1ccc(C)cc1NC(=O)Cc1cc(=O)[nH]c(SCc2ccc(F)cc2)n1  PriA–SSB C-terminal tail interaction (Klebsiella pneumoniae)             %              -4
2  Cc1nn(-c2ccc(Nc3ccc(NC(=O)COc4ccccc4)cc3)nn2)c(C)c1C  PriA–SSB C-terminal tail interaction (Klebsiella pneumoniae)             %              -7
3            O=C(Nc1nc2ccccc2s1)C(=O)NC1CC1  PriA–SSB C-terminal tail interaction (Klebsiella pneumoniae)             %               3

Record Cc1c(C(=O)O)cccc1-c1ccc(C=NNc2ccc(Br)cc2)o1 ; system PriA–SSB C-terminal tail interaction (Klebsiella pneumoniae); inhibition = 0.6

Record COC(=O)c1ccc(NC(=O)C2CCCN(c3ccc(-c4ccc(F)cc4)nn3)C2)cc1 (stereo unspecified) ; system PriA–SSB C-terminal tail interaction (Klebsiella pneumoniae); inhibition = -17

---

Test system: PriA–SSB C-terminal tail interaction (Klebsiella pneumoniae)
Assay: blocks PriA binding to SSB C-terminal tail, primary screen, biochemical, AlphaScreen (AID 1272365);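 further: plate controls were negative control peptide for no effect and reference peptide for full effect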
Details: AlphaScreen SSBct-PriA binding, biotinylated peptide; at 33 µM
Among all 430,000 compounds or so, about 2,600 (0.6%) were called active. Cut-off read from the data, not from the text of the source: active = inhibition mostly above about 37% (no sharp cut-off); inactive = mostly below about 20%. The sample as a whole holds a higher share of actives than the screen did.
Classes to choose from: active, inactive

                                   compound  classification
0           O=C(NCC1(c2ccsc2)CCCC1)Nc1cccs1          active
1             C=C1Cn2c(nnc2-c2ccc(Br)cc2)S1          active
2           COCCNC(=O)NC[C@H]1CCCN1c1ccccc1        inactive
3  O=C(NC[C@H]1CCCN1c1ccccc1)c1cc(-c2ccco2)[nH]n1          active
4             NCCc1csc2nc(-c3cccc(F)c3)nn12        inactive
5  OC(COc1ccc2c(c1)CCC2)CN1CCN(c2cccc(Cl)c2)CC1 (stereo not given)        inactive

Task: Hi team, can someone confirm the assay call for Cc1cc(C(=O)NCC2CCCN2c2ccccc2)no1 (stereo not given) ?
Result: inactive

Task: Hi team, can someone confirm the assay call for O=C(Nc1cccc(-c2nc3ccccc3s2)c1)c1ccc([N+](=O)[O-])cc1 ?
Result: inactive

Task: Hi team, can someone confirm the assay call for Cc1cc([N+](=O)[O-])c(NC2CCCCC2)c([N+](=O)[O-])c1 ?
Result: active

---

Tested on: PriA–SSB C-terminal tail interaction (Klebsiella pneumoniae)
Assay: blocks PriA binding to SSB C-terminal tail, primary screen, biochemical, AlphaScreen (AID 1272365);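 further: plate controls were negative control peptide for no effect and reference peptide for full effect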
Details: AlphaScreen SSBct-PriA binding, biotinylated peptide; at 33 µM, active compounds read high
Out of some 430,000 compounds screened, about 2,600 (0.6%) were called active. Only a selection was taken, and actives are over-represented in it overall.
Parameter inhibition: see the listing below.
// return numeric value only (unit: %, not printed)

>>> df
                                   compound  readout_kind  result_units  value_observed
0      CC(=NNC(=O)c1c[nH]c2ccccc12)c1ccccn1    inhibition             %            75.7
1       O=C(Nc1ccc2c(c1)OCO2)c1ccc2nccnc2c1    inhibition             %             -19
2  CC(Cc1cccs1)NC(=O)Cc1ccccc1Cl (configuration not stated)    inhibition             %             -11

Summary for this compound, Cc1cc(NC(=O)C(=O)NCc2cccnc2)ccc1N1CCCC1=O : inhibition is 0

Summary for this compound, COc1ccc(-n2nnc(C(=O)OCc3ccccc3C)c2C)cc1 : inhibition is -5

Summary for this compound, CC(C)CS(=O)(=O)C1CCN(C(=O)c2cccc(Oc3ccc(F)cc3)c2)CC1 : inhibition is -1

Summary for this compound, Cc1c(CCOC(=O)C23CC4CC(CC(C)(C4)C2)C3)sc[n+]1Cc1ccc([N+](=O)[O-])cc1 : inhibition is 39

Summary for this compound, CCN(CC)c1ccc(C=NNC(=O)c2c[nH]c3ccccc23)cc1 : inhibition is 16.7

Summary for this compound, COc1ncc(NC(=O)c2snnc2C)cn1 : inhibition is 1

Summary for this compound, Cn1c(-c2ccc(F)cc2)cnc1SCC(=O)NNC(=O)Cc1ccccc1 : inhibition is -3.92

Summary for this compound, O=S(=O)(Cc1ccccc1)N1CCN(c2cc(-n3cccc3)ncn2)CC1 : inhibition is 6

Summary for this compound, COc1c2ccc(C(=O)NCC3CCCN3c3nc4ccccc4o3)cc2nn1C (configuration not stated) : inhibition is -11

---

System: PriA–SSB C-terminal tail interaction (Klebsiella pneumoniae)
Assay: blocks PriA binding to SSB C-terminal tail, primary screen, biochemical, AlphaScreen (AID 1272365);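 further: plate controls were negative control peptide for no effect and reference peptide for full effect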
Conditions: AlphaScreen SSBct-PriA binding, biotinylated peptide; at 33 µM, active compounds read high
In all, about 430,000 compounds went through this assay and about 2,600 (0.6%) were called active. Many of the other results were omitted from the sample, so actives are more common in it than they were.
readout_kind: inhibition (%)
// return numeric value only (unit: %, not printed)

Below, 5 compounds whose answers are already recorded.
In [3]: df
Out[3]:
                                   compound  value_observed
0  COc1cccc2c1C(=O)c1c(O)c3c(c(O)c1C2=O)CC(O)(C(C)=NNC(=O)c1ccc(Cl)c(Cl)c1)CC3OC1CC(N)C(O)C(C)O1 (stereo not drawn)            57.5
1         O=C(Oc1cccc(Oc2ccccc2)c1)N1CCCCC1             -33
2  CC(NC(=O)c1ccccc1)C(c1ccccc1)N(C)C (stereo not drawn)              25
3  COc1ccc(OC)c(NC(=O)CSc2nccn2-c2cccc(C(F)(F)F)c2)c1              10
4   O=C(c1ccc(-c2cccs2)cc1)N1CC(Oc2nccs2)C1              -9

Summary for this compound, O=[N+]([O-])c1ccc(N2CCCCC2)c2cccnc12 : inhibition is 46.9

Summary for this compound, COc1cc(OC)c(OC)cc1/C=C1/C(=O)NC(=N)N1C : inhibition is -14.1

Summary for this compound, COC(=O)c1c(NC(=O)c2cc(C)no2)sc2c1CCCC2 : inhibition is 0

Summary for this compound, COc1ccc(C(=O)NN=C(c2ccccc2)c2ccccn2)cc1 : inhibition is -7.73

Summary for this compound, COc1ccc(OC)c2sc(N(CCCN3CCOCC3)C(=O)c3cc(C)no3)nc12 : inhibition is 3
